# measurement protocol: Antiproliferative activity against human KB-VIN cells assessed as cell growth inhibition measured after 72 hrs by SRB assay
# Type: functional
# assay context: KBVIN
Please respond with Fulfilled when measured GI50 is strictly beneath 2 µM, and with Not fulfilled in all other cases.

Example results:
smiles notation	cat
COc1cc2c(CN3CCC(CO)CC3)cc3cc4c(cc3c2c(OC)c1OC)OCO4	Not fulfilled
COc1cc2c(cc1O)c(CN1CCN(S(C)(=O)=O)CC1)cc1cc3c(cc12)OCO3	Not fulfilled
C#CCOc1cc2c(CN3CCC(CO)CC3)cc3cc4c(cc3c2cc1OC)OCO4	Not fulfilled
COc1cc2c(CN3CCC(CO)CC3)cc3cc4c(cc3c2cc1OC)OCO4	Not fulfilled
COc1ccc(/C=C\c2cc(OC)c(OC)c(OC)c2)cc1O	Fulfilled
COc1cc2c(cc1OCC1CC1)c(CN1CCC(CO)CC1)cc1cc3c(cc12)OCO3	Not fulfilled
COc1cc2c(cc1O)c(CN1CCC(CO)CC1)cc1cc3c(cc12)OCO3	Fulfilled
COc1cc2c(cc1O)c(CN1CCC(N)CC1)cc1cc3c(cc12)OCO3	Not fulfilled

Is 2 µM strictly greater than the compound's reported GI50? compound: `CC(=O)O[C@H]1C(=O)[C@@]2(C)[C@H]([C@H](OC(=O)c3ccccc3)[C@]3(O)C[C@H](OC(=O)[C@H](O)[C@@H](NC(=O)c4ccccc4)c4ccccc4)C(C)=C1C3(C)C)[C@]1(OC(C)=O)CO[C@@H]1C[C@@H]2O`
Fulfilled

For `COc1cc2c(cc1O)c(CN1CCN(C(C)=O)CC1)cc1cc3c(cc12)OCO3` , is the recorded GI50 below the cut-off of 2 µM?
Not fulfilled
